- ASSAY_OVERVIEW: PSAC antagonists in infected red cells, primary screen, cell-based, P. falciparum Indochina, OD700, 2 h (AID 1155);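 further: lysis reports solute entry through the parasite surface anion channel PSAC; channel blockers reduce lysis of infected cells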
- EXPERIMENTAL_SETUP: P. falciparum Indochina infected erythrocytes, osmotic lysis OD700; higher = more signal, called active from +8 up or from −8 down
MEASUREMENT_LABEL: z-score
Numbers only.

Batch: z-score for all items listed.
1. O=C1C[C@@](C(=O)NCCN2CCOCC2)(c2ccc([N+](=O)[O-])cc2)[C@@H](c2ccc(CO)cc2)N1CC12CC3CC(CC(C3)C1)C2
2. O=C1NC(=O)C2C1C=CC(C(O)c1cc(C(F)(F)F)cc(C(F)(F)F)c1)N2Nc1ccccn1 (centres undefined)
3. C[N+](C)(C)CCCC[C@@H]1NC(=O)[C@H]2C[C@@H](C(=O)NCCCCCCNC(=O)CS)[C@@H](c3cccc(OCCO)c3)N2C1=O
4. COc1ccc([Si](C)(C)[C@H]2[C@H](CC(=O)N3Cc4ccccc4C[C@H]3CO)O[C@@]3(C(=O)N(Cc4cccc(N5CCC5=O)c4)c4ccccc43)[C@@H]2C)cc1

[1.23, 0.701, 0.679, 1.63]

* * *

- ASSAY_OVERVIEW: splicing luciferase reporter signal modulators, primary screen, spliceosome inhibition project, cell-based, HEK293, splice +/- reporter (AID 1101);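 further: HEK293 cells carrying a splicing-competent luciferase reporter gene; test concentration not given here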
- EXPERIMENTAL_SETUP: luminescence, 24 h, higher = more signal, called active from +8 up or from −8 down
MEASUREMENT_LABEL: z-score
Give bare numbers.

COMPOUND	z-score
COc1ccccc1CN1C(=O)c2ccccc2[C@@]2(Cc3ccccc3N(CC(C)C)C2=O)[C@@H]1c1ccc(CO)cc1	-0.686
CCc1cccc(NC(=O)O[C@H]2[C@H](OC(=O)Nc3ccccc3-c3ccccc3)[C@@H](OC(=O)Nc3ccccc3-c3ccccc3)[C@@H](OC)O[C@@H]2CO)c1	-2.55
C=CCC(OC(C)=O)[C@@H]1[C@@H](N(Cc2cccc3ccccc23)C(=O)c2ccc(-c3ccccc3)cc2)c2cc(OCCCO)ccc2N1C(=O)c1ccc2ccccc2c1 (some centres not stated)	-0.157

Batch: z-score for all items listed.
1. O=C1C2C=CC(C(O)c3cc(C(F)(F)F)cc(C(F)(F)F)c3)N(n3cnnc3)C2C(=O)N1Cc1ccccc1 (configuration not stated)
2. CCCC[C@@H]1C[C@H]1[C@@H](NC(=O)c1cccs1)c1ccc(-c2ccccc2)cc1
3. CC(C)C(O)C1C=CC2C(=O)NC(=O)C2N1Nc1ccc(Cl)cc1Cl (configuration not stated)
4. COC(=O)[C@@]1(Cc2ccc(OC)cc2)[C@H]2c3cc(C(=O)N(C)C)n(C)c3C[C@H]2CN1C(=O)c1ccccc1

-0.27
-1.23
1.54
-1.96

* * *

- ASSAY_SYSTEM: Dihydroorotate dehydrogenase (quinone), mitochondrial (Plasmodium falciparum (isolate 3D7)) (UniProt Q08210)
- Sequence (Q08210 whole entry, looked up): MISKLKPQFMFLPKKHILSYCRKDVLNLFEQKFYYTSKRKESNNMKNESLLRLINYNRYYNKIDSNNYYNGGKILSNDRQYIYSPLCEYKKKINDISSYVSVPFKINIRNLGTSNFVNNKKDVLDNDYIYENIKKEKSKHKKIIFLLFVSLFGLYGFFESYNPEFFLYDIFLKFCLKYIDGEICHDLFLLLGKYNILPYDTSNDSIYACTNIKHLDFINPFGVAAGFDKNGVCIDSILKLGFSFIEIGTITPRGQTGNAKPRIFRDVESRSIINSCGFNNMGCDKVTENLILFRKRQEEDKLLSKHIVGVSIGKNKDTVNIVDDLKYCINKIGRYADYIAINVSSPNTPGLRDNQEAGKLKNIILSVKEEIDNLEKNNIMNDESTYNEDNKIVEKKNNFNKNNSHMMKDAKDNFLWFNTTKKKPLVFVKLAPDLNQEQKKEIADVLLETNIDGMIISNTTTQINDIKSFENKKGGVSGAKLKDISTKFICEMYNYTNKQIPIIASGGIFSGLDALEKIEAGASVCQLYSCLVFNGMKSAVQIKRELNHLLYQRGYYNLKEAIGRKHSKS
- ASSAY_OVERVIEW: PfDHODH enzyme inhibitors, primary screen, biochemical, C-terminal His tag, absorbance 600 nm (AID 1175);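 further: recombinant parasite enzyme with a five histidine tag at its C terminus; test concentration not given here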
- EXPERIMENTAL_SETUP: DCIP absorbance 600 nm, higher = more signal, called active from +8 up or from −8 down
MEASUREMENT_LABEL: composite z-score
Answers are plain numbers.

Record excerpt, results attached:
COMPOUND	composite z-score
COCCOC(=O)N1C(=O)[C@@]2(c3cc(C#CCCO)ccc31)[C@H](C(=O)N1CCCCCCC1)[C@H]1C(=O)O[C@H](c3ccccc3)[C@H](c3ccccc3)N1[C@@H]2c1ccc(OCCO)cc1	0.047
COCCCNC(=O)[C@]1(CCC(=O)OC(C)(C)C)N=C(c2ccc(OCCCO)cc2)O[C@@H]1c1ccccc1CN=[N+]=[N-]	0.249
COC(=O)C(CC#Cc1ccc2c(c1)[C@]1(C(=O)N2)[C@H](C(=O)Nc2nc3ccccc3s2)[C@H]2C(=O)O[C@H](c3ccccc3)[C@H](c3ccccc3)N2[C@@H]1c1ccc(O)cc1)C(=O)OC	-0.72
COc1ccc(C(O)C2C=CC3C(=O)N(Cc4ccccc4)C(=O)C3N2n2cnnc2)cc1OCc1ccccc1 (configuration not stated)	-0.265
C=C(CCCC)/C(=C/C[C@@H](OC(C)=O)c1ccc(OCCO)cc1)c1cnc2ccccc2c1	-4.4
O=C(NCCN1CCOCC1)[C@@H]1c2ccccc2C(=O)N(C2CCCCC2)[C@H]1c1ccc(CO)cc1	-0.146

Consider COc1ccc(/C=C/C=O)cc1 . Its measured composite z-score is -0.291

* * *

- ASSAY_OVERVIEW: osmotic lysis modulators in infected erythrocytes, primary screen, PSAC antagonist project, cell-based, P. falciparum Indochina, OD700, 3 h (AID 1156)
- EXPERIMENTAL_SETUP: higher = more signal, called active from +8 up or from −8 down
The source made the active and inactive calls.
MEASUREMENT_LABEL: z-score

MOLECULE	z-score
COCCOC(=O)N1C(=O)[C@@]2(c3cc(C#CCC(C(=O)OC)C(=O)OC)ccc31)[C@H](c1ccccc1OCCO)N1[C@H](c3ccccc3)[C@H](c3ccccc3)OC(=O)[C@H]1[C@@H]2C(=O)NC[C@H](O)c1ccccc1	-0.0048 (inactive)
C=C(CCCC)C(=O)CC[C@@H](OC(=O)c1ccccc1-c1ccccc1C(=O)O)c1ccc(OCCO)cc1	1.15 (inactive)
O=C1NC(=O)C2C1C=CC(C(O)c1cc(C(F)(F)F)cc(C(F)(F)F)c1)N2Nc1ccccn1 (stereo not given)	-0.0477 (inactive)
COCCOC(=O)N1C(=O)[C@@]2(c3cc(C#CCC(C(=O)OC)C(=O)OC)ccc31)[C@H](C(=O)Nc1nc3ccccc3s1)[C@H]1C(=O)O[C@H](c3ccccc3)[C@H](c3ccccc3)N1[C@@H]2c1ccccc1OCCO	0.599 (inactive)
CN1C(=O)C2C=CC(C(O)C#Cc3ccccc3)N(N3CCCCC3)C2C1=O (stereo not given)	0.83 (inactive)

Batch: z-score for all items listed.
1. Cc1ccc(S[C@]2(C(=O)NCCCN(C)C)CC(=O)N(Cc3ccccc3C(F)(F)F)[C@@H]2c2ccc(CO)cc2)cc1
2. [N-]=[N+]=Nc1ccccc1[C@H]1OC(c2ccc(OCCCO)cc2)=N[C@@]1(CCS(=O)(=O)c1ccccc1)C(=O)NCC(O)CO (stereo not given in full)
3. CO[C@H]1O[C@H](CO)[C@@H](OC(=O)Nc2cccc(F)c2)[C@H](OC(=O)Nc2ccccc2)[C@@H]1OC(=O)Nc1ccccc1
4. NCCCCCNC(=O)[C@@H]1C[C@@H]2C(=O)N[C@@H](Cc3ccccc3)C(=O)N2[C@@H]1c1ccc(O)cc1
5. O=C1c2ccccc2[C@](Cc2ccccc2I)(C(=O)NCCN2CCOCC2)[C@H](c2ccc(CO)cc2)N1C1CCCCC1

1: 0.298 (inactive); 2: 1.72 (inactive); 3: -0.476 (inactive); 4: -0.648 (inactive); 5: 0.664 (inactive)

Batch: z-score for all items listed.
1. C[N+](C)(C)CCCCNC(=O)[C@@H]1C[C@@H]2C(=O)N[C@@H](Cc3ccccc3)C(=O)N2[C@@H]1c1cccc(OCCO)c1
2. COc1cc2c(cc1O)C(c1cccs1)N(C)CC2 (stereo not given)
3. O=C1C[C@]2(c3ccc([N+](=O)[O-])cc3)C(=O)N(CC(F)(F)F)c3cc(CO)ccc3[C@H]2N1C1CCCCC1
4. C=C(C)[C@@H]1CC=C(C(O)C2C=CC3C(=O)N(C)C(=O)C3N2Nc2ccccc2)CC1 (stereo not given in full)
5. CN(C)CCCC[C@@H]1NC(=O)[C@H]2C[C@@H](C(=O)NCCCCCCN)[C@@H](c3ccc(O)cc3)N2C1=O

-1.44 (inactive)
-0.0863 (inactive)
0.503 (inactive)
0.683 (inactive)
1.31 (inactive)

* * *

Hi there, I'd appreciate the recorded z-score for every entry that follows.
- ASSAY_OVERVIEW: inhibitors of hydroxyurea-induced Chk1 phosphorylation, primary screen, imaging, HeLa, phospho-Chk1 antibody, percent positive cells (AID 1186)
- EXPERIMENTAL_SETUP: hydroxyurea-induced phospho-Chk1 immunofluorescence imaging, higher = more signal
One number for each entry.

Record excerpt, results attached:
MOLECULE	TEST_VALUE
C=CCC(OC(C)=O)[C@@H]1[C@@H](N(Cc2ccc(-c3ccccc3)cc2)C(=O)Cc2ccc(OC)cc2)c2cc(OCCCO)ccc2N1C(=O)Cc1ccc2ccccc2c1 (stereo partly specified)	0.802
CCc1cccc(NC(=O)O[C@H]2[C@H](OC(=O)Nc3ccccc3-c3ccccc3)[C@@H](OC(=O)Nc3ccccc3-c3ccccc3)[C@@H](OC)O[C@@H]2CO)c1	0.167
C=C(COC)/C(=C/C[C@@H](OC(C)=O)c1ccc(OCCO)cc1)c1cnc2ccccc2c1	0.136
COC(=O)C(CC#Cc1ccc2c(c1)[C@]1(C(=O)N2)[C@H](C(=O)Nc2nc3ccccc3s2)[C@H]2C(=O)O[C@H](c3ccccc3)[C@H](c3ccccc3)N2[C@@H]1c1ccc(O)cc1)C(=O)OC	-0.558
NC(=O)N1C(=O)C2C(C1=O)C1C=C(c3ccc(CO)cc3)C2C(c2cccs2)N1Cc1cccc(OC(F)(F)F)c1 (stereo unspecified)	0.0422

Could you now look at the following molecule, please?
Consider CC(C)[Si]1(C(C)C)O[C@@H](c2ccccc2)c2cc(-c3ccc(-c4ccc(Cl)c(Cl)c4)o3)nc(-c3ccccc3)c21 . Its measured z-score is 0.025
